Entries annotated with measured cleaved RNA product abundance
System: Bacillus subtilis
Assay Text: cleaved RNA product abundance (RNA/gDNA barcode ratio) relative to median wild-type variant (ratio to wild type); higher = more accumulation of the downstream cleavage product
Protocol Conditions: experiment (reporter, strain, medium): exp 2b: truncated aprE reporter, strain BJT200; cleavage site: cggR-gapA (positions -7 to +36 mutated)
Just the number, please.

Below: 5 sequences and their reported cleaved RNA product abundance.
# Biosequence, Observed Value
data = [
    ("ACAGACGAAGGAGCCGCAAAGAAGTTATTAAGGGACGAATAGTCCCTCAATATAAATATCTCTCACTTATTTAAA", 0.905),
    ("ACAGACGAAGGAGCCGCAAAAAAGTTATTAAGGGATGAATAATCCCCCAATATAAATATCTCTCACTTATTTAAA", 0.238),
    ("ACAGACGAAGGAGCCGCAAAGAAGTTATTAAGGGACGAATAATCCTTCAATATAAATATCTCTCACTTATTTAAA", 0.146),
    ("ACAGACGAAGGAGCCGCAAAGAAGTTTTTAAGGAATGAATAATCCCTCAATATAAATATCTCTCACTTATTTAAA", 0.0825),
    ("ACAGACGAAGGAGCCGCAAGGAAGTTATTAAGGGATAAATAATCCCTCAATATAAATATCTCTCACTTATTTAAA", 0.888),
]

Give recorded cleaved RNA product abundance with Bacillus subtilis for the following sequence: ACAGACGAAGGAGCCGCAAAGAACTTATTAAGGGATGAATAATCACTCAATATAAATATCTCTCACTTATTTAAA
0.102

Next entry: ACAGACGAAGGAGCCGCAAAGAAGTTATTATAGGATGAATAATCCCTCAATATAAATATCTCTCACTTATTTAAA
0.149

Next entry: ACAGACGAAGGAGCCGCAAAGAAGTTATTAAGTGATGAATTATCCCTCAATATAAATATCTCTCACTTATTTAAA
0.104

Next entry: ACAGACGAAGGAGCCGCAAAGAAGTTATTAAGGGATGAATAATTACTCAATATAAATATCTCTCACTTATTTAAA
0.0971

Next entry: ACAGACGAAGGAGCCGCAAAGAAGTTATTAAGAGATGCATAATCCCTCAATATAAATATCTCTCACTTATTTAAA
0.117

Next entry: ACAGACGAAGGAGCCGCAAAGAACCTATTAAGGGATGAATAATCCCTCAATATAAATATCTCTCACTTATTTAAA
0.18

Next entry: ACAGACGAAGGAGCCGCAAAGAAGATATTAAGGGATGAATAATCCCTCAATATAAATGTCTCTCACTTATTTAAA
0.338

Next entry: ACAGACGAAGGAGCCGCAAAGAAGTTATTAAGGGATGAATTATCCTTCAATATAAATATCTCTCACTTATTTAAA
0.232

Next entry: ACAGACGAAGGAGCCGCAAAGAAGTTATTAAGGCGTGAATAATCCCTCAATATAAATATCTCTCACTTATTTAAA
0.097

Next entry: ACAGACGAAGGAGCCGCAAAGAATTTATTAAGGGATGAATAATCGCTCAATATAAATATCTCTCACTTATTTAAA
0.105

* * *

System: Bacillus subtilis
Assay Text: cleaved RNA product abundance (RNA/gDNA barcode ratio) relative to median wild-type variant (ratio to wild type); higher = more accumulation of the downstream cleavage product
Protocol Conditions: experiment (reporter, strain, medium): exp 4a: truncated aprE reporter, strain BJT201 with 2% xylose (RNase J1 expressed); cleavage site: cggR-gapA (positions -7 to +36 mutated)
Entries annotated with measured cleaved RNA product abundance
Just the number, please.

# Biosequence, cleaved RNA product abundance
data = [
    ("ACAGACGAAGGAGCCGCAAAGAAGTTAATAAGGGATGAATCATCCCTCAATATAAATATCTCTCACTTATTTAAA", 0.314),
]

So what's the measured cleaved RNA product abundance for this one? ACAGACGAAGGAGCCGCAAAGAAGTTATAAAGGGATGAATATTCCCTCAATATAAATATCTCTCACTTATTTAAA
0.281

Next entry: ACAGACGAAGGAGCCGCAAAGAAGTTAGTAAGGGATGAATAATCCGTCAATATAAATATCTCTCACTTATTTAAA
0.218

Next entry: ACAGACGAAGGAGCCGCAAAGAATTGATTAAGGGATGAATAATCCCTCAATATAAATATCTCTCACTTATTTAAA
0.439

Next entry: ACAGACGAAGGAGCCGCAAAGAAGTTACTAAGGGATGAATAAACCCTCAATATAAATATCTCTCACTTATTTAAA
0.14

Next entry: ACAGACGAAGGAGCCGCATAGAAGTTATTAAGGGATAAATAATCCCTCAATATAAATATCTCTCACTTATTTAAA
0.861

Next entry: ACAGACGAAGGAGCCGCAAATAATTTATTAAGGGATGAATAATCCCTCAATATAAATATCTCTCACTTATTTAAA
0.591
